System: H2405 cells
testName: H2405 Cell Proliferation Assay (1)
Assay type: cell-based
testParameters: Homo sapiens, NCI-H2405
For each of the compounds below, state its IC50.

Task: # IC50 lookup, item `CNC(=O)c1cc(-c2cnnc(-c3cc(NC(=O)c4ccnc(C(F)(F)F)c4)ccc3C)c2)ccn1`
Output: 500 to 1000 nM

Task: Look up IC50: `Cc1ccc(NC(=O)c2cn(C(C)C)nn2)cc1-c1cc(-c2ccnc(NC(=O)C3CC3)c2)cnn1`
Output: 1000 to 10000 nM

Task: Fill blank: measured IC50 of the compound `CNC(=O)c1cc(-c2cccc(-c3cc(NC(=O)c4ccnc(C(C)(C)C#N)c4)cnc3C)c2)ncn1` is ____.
Output: 100 to 500 nM

Task: Give the measured IC50 of `CC(=O)Nc1cc(-c2cccc(-c3cc(NC(=O)c4ccnc(C(F)(F)F)c4)ccc3C)c2)ncn1` .
Output: ≤ 100 nM

Task: Query (compound): `Cc1ccc(NC(=O)[C@H]2CCO[C@H](C(C)C)C2)cc1-c1cc(-c2ccnc(NC(=O)C3CC3)c2)cnn1` ; field requested: IC50
Output: 1000 to 10000 nM

Task: What value of IC50 has been reported for the following compound? `Cc1ccc(NC(=O)c2cc(C3CC3)n(C)n2)cc1-c1ccnc(-c2ccnc(NC(=O)C3CC3)c2)n1`
Output: 100 to 500 nM

Task: Any idea what IC50 was measured for `Cc1ncc(NC(=O)c2ccnc(C(C)(C)C#N)c2)cc1-c1cncc(-c2cc(NC(=O)C3CC3)ncn2)c1` ?
Output: 100 to 500 nM

* * *

Hi there, I'd appreciate the recorded pIC50 for every entry that follows.
testTarget: B-Raf (V600E) (SEQ. ID NO: 4) kinase (Homo sapiens (Human), UniProt P15056, V600E)
Sequence (P15056 416-766 V600E): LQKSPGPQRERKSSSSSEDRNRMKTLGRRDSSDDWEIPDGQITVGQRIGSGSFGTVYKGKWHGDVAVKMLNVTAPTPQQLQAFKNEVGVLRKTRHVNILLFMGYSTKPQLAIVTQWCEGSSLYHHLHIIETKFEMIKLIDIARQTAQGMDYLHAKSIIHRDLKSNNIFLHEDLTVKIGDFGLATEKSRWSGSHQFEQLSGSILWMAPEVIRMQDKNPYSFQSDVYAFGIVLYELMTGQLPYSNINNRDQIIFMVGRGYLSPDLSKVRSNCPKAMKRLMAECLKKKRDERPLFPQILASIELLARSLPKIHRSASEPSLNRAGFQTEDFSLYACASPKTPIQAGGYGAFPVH
testName: Biochemical Assay for B-Raf (V600E) (1)
testParameters: Table J, BRAF V600E, assay version (1); read-out: BRAF VE (1) IC50
pIC50: −log10 of the molar value.

Task: I would be grateful if you could share the reported pIC50 for `CC(=O)Nc1cc(-c2nccc(-c3cc(NC(=O)c4ccnc(C(C)(C)C#N)c4)cnc3C)n2)ccn1` .
Output: ≥ 7.00

Task: For the compound shown here, Cc1ccc(NC(=O)C2CCOC2)cc1-c1cccc(-c2cc(NC(=O)C3CC3)ncn2)c1 (stereo not shown) , give the reported pIC50.
Output: ≥ 7.00

Task: Find the recorded pIC50 belonging to `Cc1ccc(NC(=O)c2cn(C(C)C)nn2)cc1-c1cc(-c2ccnc(NC(=O)C3CC3)c2)cnn1` and report it.
Output: 6.30 to 7.00

Task: Reported pIC50, compound `Cc1cc(F)c(NC(=O)c2ccnc(C3(C#N)CC3)c2)cc1-c1ccnc(-c2ccnc(NC(=O)C3CC3)c2)n1` : ____
Output: ≥ 7.00

Task: Consider the compound `CNC(=O)c1cc(-c2cnnc(-c3cc(NC(=O)c4ccnc(C(F)F)c4)ccc3C)c2)ccn1` and give its measured pIC50.
Output: 6.00 to 6.30

Task: Requested field: pIC50. Item: `CNC(=O)c1cc(-c2ccnc(-c3cc(NC(=O)c4ccnc(C(C)(C)OC)c4)ccc3C)n2)ccn1`
Output: ≥ 7.00

Task: Which measured pIC50 value corresponds to `Cc1ccc(NC(=O)c2ccnc(C(C)(C)C#N)c2)cc1-c1cc(-c2ccnc3[nH]ccc23)cnn1` ?
Output: ≥ 7.00
